meta.source: patent US20230203041A1

TARGET_SYSTEM: human Adenosine A2a receptor (Homo sapiens)
Sequence (P29274 whole entry): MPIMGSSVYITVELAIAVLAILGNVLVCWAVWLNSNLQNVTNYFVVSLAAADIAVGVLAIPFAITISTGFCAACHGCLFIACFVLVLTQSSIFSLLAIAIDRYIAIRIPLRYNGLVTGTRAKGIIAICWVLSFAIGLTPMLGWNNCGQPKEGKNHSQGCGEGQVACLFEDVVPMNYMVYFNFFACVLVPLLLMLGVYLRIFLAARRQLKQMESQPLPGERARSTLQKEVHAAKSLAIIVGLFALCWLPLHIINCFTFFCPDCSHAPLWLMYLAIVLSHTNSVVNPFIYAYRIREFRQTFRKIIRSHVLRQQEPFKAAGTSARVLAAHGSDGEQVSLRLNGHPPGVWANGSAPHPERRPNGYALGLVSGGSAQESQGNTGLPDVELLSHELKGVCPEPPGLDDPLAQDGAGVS
Structures can show the parent of a compound that is named as a salt.
OBSERVED_PROPERTY: Ki (nM)

INSERT INTO measurements (compound, result_number) VALUES
  ('Cc1cc(-c2c(-c3cccc(C#N)c3)nn3ccc(N4CCOC[C@H]4C(=O)O)nc23)cc(Cl)n1', 0.6),
  ('Cc1cc(-c2c(-c3cccc(C#N)c3)nn3ccc(C(=O)N4CCC5(CC4)NC(=O)NC5=O)nc23)cc(C)n1', 27.6),
  ('Cc1cc(-c2c(-c3cccc(C#N)c3)nn3ccc(C(=O)NCC4(C)CCC(=O)NC4)nc23)cc(C)n1 (stereo not shown)', 0.7),
  ('Cc1cc(-c2c(-c3cccc(C#N)c3)nn3ccc(N[C@@H](C)[C@H](O)CO)nc23)cc(Cl)n1', 1.1),
  ('Cc1cc(-c2c(-c3cccc(C#N)c3)nn3ccc(C(=O)N[C@H]4C[C@H](O)C4)nc23)cc(Cl)n1', 0.3),
  ('Cc1cc(-c2c(-c3cccc(C#N)c3)nn3ccc(NCC4(O)COC4)nc23)cc(Cl)n1', 1.3),
  ('Cc1cc(-c2c(-c3cccc(C#N)c3)nn3ccc(N4CCNCC4)nc23)cc(Cl)n1', 11.8),
  ('Cc1cc(-c2c(-c3cccc(C#N)c3)nn3ccc(C(=O)NC[C@H]4CNC(=O)C4)nc23)cc(C)n1', 6.6),
  ('Cc1cc(-c2c(-c3cccc(C#N)c3)nn3ccc(C(=O)NCC(C)(C)O)nc23)ccn1', 2.9),
  ('Cc1cc(-c2c(-c3cccc(C#N)c3)nn3ccc(NC4CCN(C)CC4)nc23)cc(Cl)n1', 0.5),
  ('Cc1cc(-c2c(-c3cccc(C#N)c3)nn3ccc(NC(N)=O)nc23)cc(C)n1', 1.8),
  ('Cc1cccnc1CN1CCN(c2ccn3nc(-c4cccc(F)c4)c(C#N)c3n2)CC1', 33.9),
  ('Cc1cc(-c2c(-c3cccc(C#N)c3)nn3ccc(C(=O)N[C@H]4C[C@@](C)(O)C4)nc23)cc(C)n1', 1.3),
  ('Cc1cc(-c2c(-c3cccc(C#N)c3)nn3ccc(CCC(C)(C)O)nc23)cc(Cl)n1', 1),
  ('N#Cc1c(-c2ccco2)nn2ccc(N3CCN(Cc4ccccc4)CC3)nc12', 16.4),
  ('Cc1cc(-c2c(-c3cccc(C#N)c3)nn3ccc(C(=O)NC[C@@H]4CCC(=O)N4)nc23)cc(C)n1', 13),
  ('Cc1cc(-c2c(-c3cccc(C#N)c3)nn3ccc(C(=O)NC(C)C4(O)COC4)nc23)cc(C)n1 (stereo not shown)', 0.7),
  ('N#Cc1c(-c2ccco2)nn2ccc(N3CCNCC3)nc12', 237),
  ('Cc1cc(-c2c(-c3cccc(C#N)c3)nn3ccc(NS(N)(=O)=O)nc23)cc(Cl)n1', 11.1),
  ('CCN1CCC(Nc2ccn3nc(-c4cccc(C#N)c4)c(-c4cc(C)nc(Cl)c4)c3n2)CC1', 0.7),
  ('Cc1cc(-c2c(-c3cccc(C#N)c3)nn3ccc(N/C(=N\C#N)NC(C)C)nc23)cc(Cl)n1', 0.2),
  ('Cc1cc(-c2c(-c3cccc(C#N)c3)nn3ccc(NC[C@H](C)O)nc23)cc(Cl)n1', 2.2),
  ('Cc1cc(-c2c(-c3cccc(C#N)c3)nn3ccc(NCc4nnc[nH]4)nc23)cc(Cl)n1', 6.4),
  ('COc1cc(-c2c(-c3cccc(C#N)c3)nn3ccc(NCC(C)(C)O)nc23)cc(C)n1', 1.3),
  ('Cc1cc(-c2c(-c3cccc(C#N)c3)nn3ccc(C(=O)NC(C)(C)C(C)(C)O)nc23)cc(Cl)n1', 0.4),
  ('Cn1nccc1-c1c(-c2ccco2)nn2ccc(NCc3ccccc3)nc12', 48.6),
  ('N#Cc1cccc(-c2nn3ccc(N)nc3c2-c2ccncc2)c1', 2.1),
  ('Cc1cc(-c2c(-c3cccc(C#N)c3)nn3ccc(N[C@H](C)[C@H](O)CO)nc23)cc(Cl)n1', 0.5),
  ('COC(=O)/C=C/c1c(-c2ccco2)nn2ccc(NCc3ccccc3)nc12', 34.7),
  ('Cc1cc(-c2c(-c3cccc(C#N)c3)nn3ccc(C(=O)N[C@@H]4CCNC4)nc23)cc(Cl)n1 [Example 7.13, hydrochloride]', 6.3),
  ('Cc1cc(-c2c(-c3cccc(C#N)c3)nn3ccc(C(=O)N[C@@H](C)C(C)(C)O)nc23)cc(C)n1', 0.4);
